The origin of these recorded values is patent US20220386606A1.

Task for the reader: assign each of the following compounds its reported Post-emergence action against VERPE in %.
# Tested on: VERPE
# assay: Post-emergence herbicidal action against VERPE
# Assay type: in vivo, Veronica persica
# condition parameters: 80 g/ha, visual assessment about 3 weeks after treatment vs untreated controls
Write the answer as a number in %, unit excluded.

// query State the recorded Post-emergence action against VERPE in % for this entry: CC#Cc1cc(C)c(C2=C(OC(=O)OCC)C3(CCC(COCC)C3)NC2=O)c(F)c1 (stereo not drawn) [Example P-54]
// result 80

// query And CC#Cc1cc(C)c(C2=C(OC(=O)OCC)C3(CCC(COC)C3)NC2=O)c(Br)c1 (stereo not drawn) [Example P-30] ?
// result 80

// query And CC#Cc1cc(C)c(C2=C(O)C3(CCC(COCC)C3)NC2=O)c(OC)c1 (stereo not drawn) [Example I-30] ?
// result 80
